Assign Ki to each entry below.
Molecular target: plasmepsin II from Plasmodium falciparum (Plm II) (Plasmodium falciparum, UniProt P46925)
Construct: made in house; host or cells: Escherichia coli
Sequence (P46925 125-453): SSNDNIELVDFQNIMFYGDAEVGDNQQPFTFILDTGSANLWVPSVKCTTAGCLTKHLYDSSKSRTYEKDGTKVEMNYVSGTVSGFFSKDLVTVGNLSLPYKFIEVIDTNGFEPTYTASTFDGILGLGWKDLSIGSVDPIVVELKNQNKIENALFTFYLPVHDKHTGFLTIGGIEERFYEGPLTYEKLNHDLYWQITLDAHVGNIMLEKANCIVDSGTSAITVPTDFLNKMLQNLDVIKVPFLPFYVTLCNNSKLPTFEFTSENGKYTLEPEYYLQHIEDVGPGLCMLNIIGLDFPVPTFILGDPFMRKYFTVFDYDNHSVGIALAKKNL
Assay: Plasmepsin II inhibition assay, hydrolysis of chromogenic substrate
Format: biochemical
Conditions: 25° C., 10 mM sodium formate, 2% DMSO, pH 4.0; fit to competitive inhibition; read-out: Ki Plm II
Procedure: FIG. 7A-C. Inhibition of Plasmepsin II from Plasmodium falciparum by KNI-10033, KNI-10030 and KNI-10006 at 20° C. in 10 mM sodium citrate, 100 mM NaCl, 2% DMSO, pH 4.0. The inhibition constants are 3 nM, 11 nM and 0.5 rLM respectively. […]
State the result as a value with its unit after it.

Some compounds with known Ki results, for comparison:
[[record]]
smiles_text = "CSCC[C@H](NC(=O)COc1cccc2cnccc12)C(=O)N[C@@H](Cc1ccccc1)[C@H](O)C(=O)N1CSC(C)(C)[C@H]1C(=O)NC(C)(C)C"
assay_endpoint = "Ki"
result = "535 nM"

[[record]]
smiles_text = "CC(C)[C@H](NC(=O)COc1cccc(Nc2ccccc2)c1)C(=O)N[C@@H](Cc1ccccc1)[C@H](O)C(=O)N1CSC(C)(C)[C@H]1C(=O)NC(C)(C)C"
assay_endpoint = "Ki"
result = "250 nM"


Turning now to a further record.
Ask: If you can, please state the reported Ki value of `Cc1cccc(C)c1OCC(=O)N[C@@H](Cc1ccccc1)[C@H](O)C(=O)N1CSC(C)(C)[C@H]1C(=O)N[C@@H]1c2ccccc2C[C@@H]1O` .
Reply: 71 nM

----------
biological target: human Cathepsin D (Homo sapiens); construct: purchased; assay: Cathepsin D inhibition assay, hydrolysis of chromogenic substrate; type: biochemical; settings: 25° C., 10 mM sodium formate, 2% DMSO, pH 4.0; fit to competitive inhibition; read-out: Ki CatD
Sequence (P07339 65-412): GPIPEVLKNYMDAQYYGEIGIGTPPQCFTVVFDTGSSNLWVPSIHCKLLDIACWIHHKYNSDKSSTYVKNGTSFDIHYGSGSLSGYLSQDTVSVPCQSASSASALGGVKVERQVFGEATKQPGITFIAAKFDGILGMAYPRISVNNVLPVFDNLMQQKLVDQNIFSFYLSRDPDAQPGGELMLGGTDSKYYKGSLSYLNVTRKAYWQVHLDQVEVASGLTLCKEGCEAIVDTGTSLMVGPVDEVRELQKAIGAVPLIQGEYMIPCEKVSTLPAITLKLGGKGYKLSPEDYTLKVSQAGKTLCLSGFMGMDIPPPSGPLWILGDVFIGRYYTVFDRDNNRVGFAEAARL
Provide the reported Ki of each item.
One number for each entry, in nM.

[[record]]
compound = "COc1ccc(CCNC(=O)[C@H]2N(C(=O)[C@@H](O)[C@H](Cc3ccccc3)NC(=O)COc3c(C)cccc3C)CSC2(C)C)cc1"
assay_endpoint = "Ki"
unit_text = "nM"
numeric_value = 655

[[record]]
compound = "CSCC(NC(=O)COc1cccc2cnccc12)C(=O)NC(Cc1ccccc1)C(O)C(=O)N1CSC(C)(C)C1C(=O)NC(C)(C)C (stereo not shown)"
assay_endpoint = "Ki"
unit_text = "nM"
numeric_value = 1770

[[record]]
compound = "Cc1cccc(C)c1OCC(=O)NC(Cc1ccccc1)C(O)C(=O)N1CSC(C)(C)C1C(=O)NCc1ccc(O)cc1 (stereo not shown)"
assay_endpoint = "Ki"
unit_text = "nM"
numeric_value = 1640

[[record]]
compound = "Cc1cccc(CNC(=O)[C@H]2N(C(=O)[C@@H](O)[C@H](Cc3ccccc3)NC(=O)COc3c(C)cccc3C)CSC2(C)C)c1"
assay_endpoint = "Ki"
unit_text = "nM"
numeric_value = 360


Need Ki for each of these compounds.
1. Cc1ccccc1CNC(=O)[C@H]1N(C(=O)[C@@H](O)[C@H](Cc2ccccc2)NC(=O)c2cccc(O)c2C)CSC1(C)C
2. Cc1cccc(C)c1OCC(=O)NC(Cc1ccccc1)C(O)C(=O)N1CSC(C)(C)C1C(=O)NC(C)(C)C (stereo not shown)
3. Cc1cccc(C)c1OCC(=O)N[C@@H](Cc1ccccc1)[C@H](O)C(=O)N1CSC(C)(C)[C@H]1C(=O)Nc1cccc2ccccc12

Reply:
1: 201; 2: 1600; 3: 130

----------
biological target: plasmepsin II from Plasmodium falciparum (Plm II) (Plasmodium falciparum, UniProt P46925); construct: made in house; host or cells: Escherichia coli; assay: Plasmepsin II inhibition assay, hydrolysis of chromogenic substrate; assay type: biochemical; details: ratio of the Ki for Cathepsin D to the Ki for Plasmepsin II
Can you tell me Discrimination Factor: Fold Selectivity for Plasmepsin II over Cathepsin D for the items I'm about to list?

Batch request: Discrimination Factor: Fold Selectivity for Plasmepsin II over Cathepsin D for each of the following compounds.
1. Cc1cccc(C)c1OCC(=O)N[C@@H](Cc1ccccc1)[C@H](O)C(=O)N1CSC(C)(C)[C@H]1C(=O)N[C@H]1CCc2ccccc21 [KNI-10026]
2. Cc1cccc(CNC(=O)[C@H]2N(C(=O)[C@@H](O)[C@H](Cc3ccccc3)NC(=O)COc3c(C)cccc3C)CSC2(C)C)c1 [KNI-10053]
3. Cc1cccc(C)c1OCC(=O)NC(Cc1ccccc1)C(O)C(=O)N1CSC(C)(C)C1C(=O)NC(C)(C)C (stereo not drawn) [KNI-727]

Reply:
[7, "~9", "~23"]

----------
Please respond with reported pKi for every item in the list.
target: plasmepsin II from Plasmodium falciparum (Plm II) (Plasmodium falciparum, UniProt P46925); construct: made in house; host or cells: Escherichia coli; assay: Plasmepsin II inhibition assay, hydrolysis of chromogenic substrate; format: biochemical; conditions: 25° C., 10 mM sodium formate, 2% DMSO, pH 4.0; fit to competitive inhibition; read-out: Ki Plm II
Answers are plain numbers, as −log10 of the molar value.

As a guide, the following entries are already answered.
[[record]]
compound = "CC(C)(C)NC(=O)[C@@H]1CSCN1C(=O)[C@@H](O)[C@H](Cc1ccccc1)NC(=O)CCC(=O)O"
measured_on = "plasmepsin II from Plasmodium falciparum (Plm II) (Plasmodium falciparum, UniProt P46925)"
assay_endpoint = "pKi"
numeric_value = 4.01

[[record]]
compound = "Cc1cccc(C)c1OCC(=O)NC(Cc1ccccc1)C(O)C(=O)N1CSC(C)(C)C1C(=O)NC(C)(C)C (stereo not drawn)"
measured_on = "plasmepsin II from Plasmodium falciparum (Plm II) (Plasmodium falciparum, UniProt P46925)"
assay_endpoint = "pKi"
numeric_value = 7.15


Ask: Recorded pKi of Cc1cccc(C)c1OCC(=O)NC(Cc1ccccc1)C(O)C(=O)N1CSC(C)(C)C1C(=O)NC(CO)c1ccccc1 (stereo not drawn) , please.
Reply: 6.27

----------
Kindly state pKi for each of the entries shown.
target: human Cathepsin D (Homo sapiens); construct: purchased; experiment: Cathepsin D inhibition assay, hydrolysis of chromogenic substrate; format: biochemical; settings: read-out: Ki for Cathepsin D
Numbers only, as −log10 of the molar value.

[[record]]
smiles_text = "CC(C)(C)NC(=O)[C@@H]1CSCN1C(=O)[C@@H](O)[C@H](Cc1ccccc1)NC(=O)CC(C)(C)C(=O)O"
numeric_value = 5.87


Moving on to another compound below.
Ask: Provide the documented pKi with human Cathepsin D (Homo sapiens) as the system for `CSC[C@H](NC(=O)COc1cccc2cnccc12)C(=O)N[C@@H](Cc1ccccc1)[C@H](O)C(=O)N1CSC(C)(C)[C@H]1C(=O)N[C@H]1Cc2ccccc2[C@H]1O`
Reply: 7.40

----------
I'd appreciate it if you could supply Ki values for the items below.
target: human Cathepsin D (Homo sapiens); construct: purchased; assay: Cathepsin D inhibition assay, hydrolysis of chromogenic substrate; assay type: biochemical; conditions: 25° C., 10 mM sodium formate, 2% DMSO, pH 4.0; fit to competitive inhibition; read-out: Ki CatD
One number for each entry, in nM.

Solved entries:
[[record]]
smiles_text = "CC(C)[C@H](NC(=O)Cc1ccc2ccccc2c1)C(=O)N[C@@H](Cc1ccccc1)[C@H](O)C(=O)N1CSC(C)(C)[C@H]1C(=O)NC(C)(C)C"
assay_endpoint = "Ki"
numeric_value = 282

[[record]]
smiles_text = "Cc1cccc(C)c1OCC(=O)N[C@@H](Cc1ccccc1)[C@H](O)C(=O)N1CSC(C)(C)[C@H]1C(=O)NCc1ccccc1O"
assay_endpoint = "Ki"
numeric_value = 252


Quick batch: Ki for everything below.
1. CCC[C@H](NC(=O)COc1cccc2cnccc12)C(=O)N[C@@H](Cc1ccccc1)[C@H](O)C(=O)N1CSC(C)(C)[C@H]1C(=O)NC(C)(C)C
2. CSCC[C@H](NC(=O)COc1cccc2cnccc12)C(=O)N[C@@H](Cc1ccccc1)[C@H](O)C(=O)N1CSC(C)(C)[C@H]1C(=O)NC(C)(C)C
3. COc1ccc(CNC(=O)[C@H]2N(C(=O)[C@@H](O)[C@H](Cc3ccccc3)NC(=O)COc3c(C)cccc3C)CSC2(C)C)cc1
4. CSC[C@H](NC(=O)COc1c(C)cccc1C)C(=O)N[C@@H](Cc1ccccc1)[C@H](O)C(=O)N1CSC(C)(C)[C@H]1C(=O)NC(C)(C)C

Reply:
1. 2260
2. 2620
3. 461
4. 1670

----------
molecular target: human Cathepsin D (Homo sapiens); construct: purchased; experiment: Cathepsin D inhibition assay, hydrolysis of chromogenic substrate; type: biochemical; conditions: Table 2; read-out: Ki Cathepsin D
pKi: −log10 of the molar value.
Record fulfilled whenever pKi is at 7 or higher; record not fulfilled when lower.

[[record]]
compound = "Cc1cccc(CNC(=O)[C@H]2N(C(=O)[C@@H](O)[C@H](Cc3ccccc3)NC(=O)COc3c(C)cccc3C)CSC2(C)C)c1"
measured_on = "human Cathepsin D (Homo sapiens)"
label_value = "not fulfilled"

[[record]]
compound = "Cc1cccc(C)c1OCC(=O)N[C@@H](Cc1ccccc1)[C@H](O)C(=O)N1CSC(C)(C)[C@H]1C(=O)N[C@H](CO)c1ccccc1"
measured_on = "human Cathepsin D (Homo sapiens)"
label_value = "fulfilled"


Ask: Test whether the compound `Cc1ccccc1CNC(=O)[C@H]1N(C(=O)[C@@H](O)[C@H](Cc2ccccc2)NC(=O)c2cccc(O)c2C)CSC1(C)C` records pKi of 7 or higher.
Reply: not fulfilled

Ask: Is the recorded value of pKi equal to or greater than 7 for this compound? Cc1cccc(C)c1OCC(=O)NC(Cc1ccccc1)C(O)C(=O)N1CSC(C)(C)C1C(=O)NC(C)(C)C (stereo not drawn)
Reply: not fulfilled

Ask: Is pKi for `Cc1cccc(C)c1OCC(=O)N[C@@H](Cc1ccccc1)[C@H](O)C(=O)N1CSC(C)(C)[C@H]1C(=O)N[C@H]1c2ccccc2C[C@H]1O` at or above 7?
Reply: fulfilled

Ask: Test whether the compound CSCC(NC(=O)COc1cccc2cnccc12)C(=O)NC(Cc1ccccc1)C(O)C(=O)N1CSC(C)(C)C1C(=O)NC(C)(C)C (stereo not drawn) records pKi of 7 or higher.
Reply: not fulfilled

Recorded values, source patent US7560482B2.
